Where do these numbers come from? They come from the NIST ThermoML archive (doi:10.1021/je900468u).

Reported speed of sound values for a set of molecules
details: 298.15 K; 101 kPa; Liquid; Pulse-echo method
recorded_endpoint: speed of sound (m/s)

- C1CCCCC1 [cyclohexane]: 1255
- CC1CCCCC1 [methylcyclohexane]: 1215
- CCc1ccccc1 [ethylbenzene]: 1319
- C1CCCCCCC1 [cyclooctane]: 1391
- Cc1ccccc1 [toluene]: 1305
- c1ccccc1 [benzene]: 1299

---

assay: refractive index (Na D-line) (dimensionless); conditions: 283.15 K; 101.33 kPa; Liquid; Standard Abbe refractometry
compounds and their reported refractive index
recorded_endpoint: refractive index

- C1CCCCC1: 1.43193
- Cc1ccccc1: 1.50278
- CC1CCCCC1: 1.42833
- CCc1ccccc1: 1.50129
- c1ccccc1: 1.50765
